Target: human HPK1 (MAP4K1) (Homo sapiens, UniProt Q92918)
Construct: Recombinant human HPK1 kinase domain was obtained from ThermoFisher (Cat. #PV6357) and SignalChem (Cat. #M23-11G); SignalChem PV6357; M23-11G
Sequence (Q92918 17-274 limits assumed): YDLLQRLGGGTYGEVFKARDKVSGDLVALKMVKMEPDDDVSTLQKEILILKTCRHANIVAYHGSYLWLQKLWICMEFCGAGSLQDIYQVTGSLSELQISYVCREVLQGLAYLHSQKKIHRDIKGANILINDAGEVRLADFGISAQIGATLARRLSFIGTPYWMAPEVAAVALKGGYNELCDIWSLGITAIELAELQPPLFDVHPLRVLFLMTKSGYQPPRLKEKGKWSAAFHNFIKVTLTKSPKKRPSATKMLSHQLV
Assay: Biochemical assay for activity against HPK1 (ADP-Glo, MBP substrate)
Details: recombinant human HPK1 kinase domain, 1 nM enzyme, ADP-Glo luminescence
Measure: IC50

Use the examples below as a reference point.
| Compound | IC50 |
| --- | --- |
| COc1cc2c(cc1Nc1ncc3cnn(C[C@@H]4CCCN4C(=O)C(F)F)c3n1)CN(C)CC2 [Example 186] | < 0.1 µM |
| COc1cc2c(cc1Nc1ncc3c(C)nn([C@H]4CC[C@@H](O)CC4)c3n1)CN(C)CC2 [Example 45] | < 0.1 µM |
| COc1cc2c(cc1Nc1ncc3cnn([C@H]4CC[C@H](C(N)=O)C4)c3n1)CN(C)CC2 (racemic) [Example 42] | < 0.1 µM |
| COc1nc2c(cc1Nc1ncc3cnn([C@H]4CC[C@H](CO)CC4)c3n1)CN(C)CC2 [Example 170] | < 0.1 µM |
| COc1cc2c(cc1Nc1ncc3cnn(C[C@@H]4CCC[C@H]4C(=O)O)c3n1)CN(C)CC2 (racemic) [Example 182] | < 0.1 µM |

Req: Report IC50 for COc1cc2c(cc1Nc1ncc3c(C)nn(C[C@@H]4CCCN4S(C)(=O)=O)c3n1)CN(C)CC2 [Example 116] please.
Resp: 0.1 to 0.25 µM

Req: Report IC50 for COc1cc2c(cc1Nc1ncc3cnn(CCN(C)S(C)(=O)=O)c3n1)CN(C)CC2 [Example 92] please.
Resp: 0.1 to 0.25 µM

Ref: patent US11918582B2
